assay: Plasma stability in vitro, rat plasma; assay type: in vitro ADME; conditions: male, Wistar, rat plasma (Li heparin), 37° C., Method A (HPLC)
Structures can show the parent of a compound that is named as a salt. Starred links: 1 amine or outer side, 2 acyl side, 3 side chain; linkers in the order of their positions; H or OH if unused. Non-standard residues stand in square brackets, D forms with d. Residues, ends and D or L forms follow the SMILES beside them. *: point of attachment. Dolaproine = CO[C@@H]([C@@H]1CCCN1)[C@@H](C)C(=O)O; X4 = O=C([C@]1(N[*:1])C[C@H]1c1ccccc1)[*:2]; Dil = CC[C@H](C)[C@H](NC)[C@@H](CC(=O)O)OC; αMeF = C[C@](N)(Cc1ccccc1)C(=O)O; Oxazinan2yl(1,2) = C1CCN(*)OC1; NMeV = CN[C@H](C(=O)O)C(C)C
QUANTITY NAME: half-life at 39.2 µg/ml (h)
Numbers only, in h.

- CC[C@H](C)[C@@H]([C@@H](CC(=O)N1CCC[C@H]1[C@H](OC)[C@@H](C)C(=O)N[C@@](C)(Cc1ccccc1)C(=O)N1CCCCO1)OC)N(C)C(=O)[C@@H](NC(=O)[C@@H](NC)C(C)C)C(C)C [Example 22, trifluoroacetic acid salt] (H-[NMeV]V[Dil][Dolaproine][αMeF]-{Oxazinan2yl(1,2)}): 2

Request: Requested field: half-life at 39.2 µg/ml. Item: CC[C@H](C)[C@@H]([C@@H](CC(=O)N1CCC[C@H]1[C@H](OC)[C@@H](C)C(=O)N[C@@]1(C(=O)N2CCCCO2)C[C@H]1c1ccccc1)OC)N(C)C(=O)[C@@H](NC(=O)[C@@H](NC)C(C)C)C(C)C [Example 16, trifluoroacetic acid salt] (H-[NMeV]V[Dil][Dolaproine][X4]-{Oxazinan2yl(1,2)})
Result: 0.75

* * *

system: human renal cancer cell line 786-0; test: Antiproliferative effect on the 786-0 RCC cell line (MTT assay); type: cell-based; settings: Homo sapiens, 786-0, 786-0 cells, incubation 48 h to 96 h
Where a name gives a salt, the structure may show the parent alone. Starred links: 1 amine or outer side, 2 acyl side, 3 side chain; linkers in the order of their positions; H or OH if unused. Non-standard residues stand in square brackets, D forms with d. Residues, ends and D or L forms follow the SMILES beside them. *: point of attachment. Dolaproine = CO[C@@H]([C@@H]1CCCN1)[C@@H](C)C(=O)O; X4 = O=C([C@]1(N[*:1])C[C@H]1c1ccccc1)[*:2]; Dil = CC[C@H](C)[C@H](NC)[C@@H](CC(=O)O)OC; Oxazinan2yl(1,2) = C1CCN(*)OC1; NMeV = CN[C@H](C(=O)O)C(C)C
Rule: IC50 below 4 nM gives true. Equal to or above 4 nM gives false.

Request: Is it true that IC50 reported for CC[C@H](C)[C@@H]([C@@H](CC(=O)N1CCC[C@H]1[C@H](OC)[C@@H](C)C(=O)N[C@@]1(C(=O)N2CCCCO2)C[C@H]1c1ccccc1)OC)N(C)C(=O)[C@@H](NC(=O)[C@@H](NC)C(C)C)C(C)C [Example 16, trifluoroacetic acid salt] (H-[NMeV]V[Dil][Dolaproine][X4]-{Oxazinan2yl(1,2)}) is less than 4 nM?
Result: false

* * *

test system: human colon carcinoma cell line HT29 wt (wild type); assay: Antiproliferative effect on the HT29 wt cell line (MTT assay); type: cell-based; details: Homo sapiens, HT-29, HT29 wt cells, 10% FCS, incubation 48 h to 96 h
Structures can show the parent of a compound that is named as a salt. Starred links: 1 amine or outer side, 2 acyl side, 3 side chain; linkers in the order of their positions; H or OH if unused. Non-standard residues stand in square brackets, D forms with d. Residues, ends and D or L forms follow the SMILES beside them. *: point of attachment. NMeVal(N-(CH2)3COOH) = CC(C)[C@@H](C(=O)*)N(C)CCCC(=O)O; Dolaproine = CO[C@@H]([C@@H]1CCCN1)[C@@H](C)C(=O)O; X2 = C[C@@H](c1ccccc1)[C@H](N[*:1])C(=O)[*:2]; X1 = O=C([C@]1(N[*:1])C[C@@H]1c1ccccc1)[*:2]; Dil = CC[C@H](C)[C@H](NC)[C@@H](CC(=O)O)OC; X7 = COC(=O)CCCN(C)[C@H](C(=O)*)C(C)C; X5 = CC(C)[C@@H](C(=O)*)N(C)CCO; Oxazinan2yl(1,2) = C1CCN(*)OC1; NMeV = CN[C@H](C(=O)O)C(C)C; X3 = c1ccc2c(c1)CON(*)C2
QUANTITY NAME: log10 of IC50 (log10 of the value in nM)
Use the decimal logarithm of IC50 (nM).

Some solved entries appear below for comparison.
• CC[C@H](C)[C@@H]([C@@H](CC(=O)N1CCC[C@H]1[C@H](OC)[C@@H](C)C(=O)N[C@@]1(C(=O)N2Cc3ccccc3CO2)C[C@@H]1c1ccccc1)OC)N(C)C(=O)[C@@H](NC(=O)[C@@H](NC)C(C)C)C(C)C [Example 18, trifluoroacetic acid salt] (H-[NMeV]V[Dil][Dolaproine][X1]-X3) = 0.08
• CC[C@H](C)[C@@H]([C@@H](CC(=O)N1CCC[C@H]1[C@H](OC)[C@@H](C)C(=O)N[C@@]1(C(=O)N2CCCCO2)C[C@@H]1c1ccccc1)OC)N(C)C(=O)[C@@H](NC(=O)[C@@H](NC)C(C)C)C(C)C [Example 17, trifluoroacetic acid salt] (H-[NMeV]V[Dil][Dolaproine][X1]-{Oxazinan2yl(1,2)}) = -0.30
• CC[C@H](C)[C@@H]([C@@H](CC(=O)N1CCC[C@H]1[C@H](OC)[C@@H](C)C(=O)N[C@@H](Cc1ccccc1)C(=O)N1CCCCO1)OC)N(C)C(=O)[C@@H](NC(=O)[C@H](C(C)C)N(C)CCO)C(C)C [Example 2] (X5-V[Dil][Dolaproine]F-{Oxazinan2yl(1,2)}) = -0.30
• CC[C@H](C)[C@@H]([C@@H](CC(=O)N1CCC[C@H]1[C@H](OC)[C@@H](C)C(=O)N[C@@H](Cc1c[nH]c2ccccc12)C(=O)N1CCCCO1)OC)N(C)C(=O)[C@@H](NC(=O)[C@@H](NC)C(C)C)C(C)C [Example 9, trifluoroacetic acid salt] (H-[NMeV]V[Dil][Dolaproine]W-{Oxazinan2yl(1,2)}) = 0.15
• CC[C@H](C)[C@@H]([C@@H](CC(=O)N1CCC[C@H]1[C@H](OC)[C@@H](C)C(=O)N[C@H](C(=O)N1CCCCO1)[C@@H](C)c1ccccc1)OC)N(C)C(=O)[C@@H](NC(=O)[C@@H](NC)C(C)C)C(C)C [Example 4, trifluoroacetic acid salt] (H-[NMeV]V[Dil][Dolaproine][X2]-{Oxazinan2yl(1,2)}) = -0.70

Quick one: give me log10 of IC50 for each item below, same order please.
1. CC[C@H](C)[C@@H]([C@@H](CC(=O)N1CCC[C@H]1[C@H](OC)[C@@H](C)C(=O)N[C@@]1(C(=O)N2CCCCO2)C[C@@H]1c1ccccc1)OC)N(C)C(=O)[C@@H](NC(=O)[C@H](C(C)C)N(C)CCCC(=O)O)C(C)C [Example 23]
2. CC[C@H](C)[C@@H]([C@@H](CC(=O)N1CCC[C@H]1[C@H](OC)[C@@H](C)C(=O)N[C@@H](Cc1ccccc1)C(=O)N1CCCCO1)OC)N(C)C(=O)[C@@H](NC(=O)[C@@H](NC)C(C)C)C(C)C [Example 1, trifluoroacetic acid salt] (H-[NMeV]V[Dil][Dolaproine]F-{Oxazinan2yl(1,2)})
3. CC[C@H](C)[C@@H]([C@@H](CC(=O)N1CCC[C@H]1[C@H](OC)[C@@H](C)C(=O)N[C@@H](Cc1ccccc1)C(=O)N1CCCCO1)OC)N(C)C(=O)[C@@H](NC(=O)[C@H](C(C)C)N(C)CCCC(=O)O)C(C)C [Example 24] ({NMeVal(N-(CH2)3COOH)}-V[Dil][Dolaproine]F-{Oxazinan2yl(1,2)})
4. CC[C@H](C)[C@@H]([C@@H](CC(=O)N1CCC[C@H]1[C@H](OC)[C@@H](C)C(=O)N[C@@H](Cc1ccccc1)C(=O)N1CCCCO1)OC)N(C)C(=O)[C@@H](NC(=O)[C@H](C(C)C)N(C)CCCC(=O)OC)C(C)C [Example 29] (X7-V[Dil][Dolaproine]F-{Oxazinan2yl(1,2)})

Result:
1. -0.15
2. -1.00
3. 0.18
4. -1.00

* * *

assay: Plasma stability in vitro, rat plasma; format: in vitro ADME; conditions: male, Wistar, rat plasma (Li heparin), 37° C., Method A (HPLC)
Structures can show the parent of a compound that is named as a salt. Starred links: 1 amine or outer side, 2 acyl side, 3 side chain; linkers in the order of their positions; H or OH if unused. Non-standard residues stand in square brackets, D forms with d. Residues, ends and D or L forms follow the SMILES beside them. *: point of attachment. Dolaproine = CO[C@@H]([C@@H]1CCCN1)[C@@H](C)C(=O)O; X1 = O=C([C@]1(N[*:1])C[C@@H]1c1ccccc1)[*:2]; Dil = CC[C@H](C)[C@H](NC)[C@@H](CC(=O)O)OC; Oxazinan2yl(1,2) = C1CCN(*)OC1; NMeV = CN[C@H](C(=O)O)C(C)C; X3 = c1ccc2c(c1)CON(*)C2
QUANTITY NAME: half-life at 39.2 µg/ml

- CC[C@H](C)[C@@H]([C@@H](CC(=O)N1CCC[C@H]1[C@H](OC)[C@@H](C)C(=O)N[C@@]1(C(=O)N2Cc3ccccc3CO2)C[C@@H]1c1ccccc1)OC)N(C)C(=O)[C@@H](NC(=O)[C@@H](NC)C(C)C)C(C)C [Example 18, trifluoroacetic acid salt] (H-[NMeV]V[Dil][Dolaproine][X1]-X3): > 24 h
- CC[C@H](C)[C@@H]([C@@H](CC(=O)N1CCC[C@H]1[C@H](OC)[C@@H](C)C(=O)N[C@@]1(C(=O)N2CCCCO2)C[C@@H]1c1ccccc1)OC)N(C)C(=O)[C@@H](NC(=O)[C@H](C(C)C)N(C)CCCC(=O)O)C(C)C [Example 23]: > 24 h

Turning to the following compound.
Request: Requested field: half-life at 39.2 µg/ml. Item: CC[C@H](C)[C@@H]([C@@H](CC(=O)N1CCC[C@H]1[C@H](OC)[C@@H](C)C(=O)N[C@@]1(C(=O)N2CCCCO2)C[C@@H]1c1ccccc1)OC)N(C)C(=O)[C@@H](NC(=O)[C@@H](NC)C(C)C)C(C)C [Example 17, trifluoroacetic acid salt] (H-[NMeV]V[Dil][Dolaproine][X1]-{Oxazinan2yl(1,2)})
Result: > 24 h
